Values compiled from patent US20250144213A1.

Target: T1, CD40-Fc recombinant protein (human, UniProt P25942 21-193)
T1 construct: Soluble staining reagent; also called CD40-Fc protein; not shown: Fc part
T1 sequence (P25942 21-193 limits assumed): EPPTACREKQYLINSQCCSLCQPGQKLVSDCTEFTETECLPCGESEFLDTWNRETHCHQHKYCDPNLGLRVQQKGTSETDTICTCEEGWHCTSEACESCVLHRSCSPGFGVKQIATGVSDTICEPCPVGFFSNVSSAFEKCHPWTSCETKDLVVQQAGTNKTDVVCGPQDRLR
Experiment: FACS staining of T cells expressing the anti-CD40 scFv-CD28 fusion with CD40-Fc protein (FIG. 64)

{"binder": "anti-CD40 scFv 40-52 (in LACOSTIM 40-52.28) (scFv, Tested on T cells as part of the LACOSTIM 40-52.28 (scFv fused with CD28), co-electroporated with the anti-Her2 CAR 4D5.BBZ; also called 40-52 scFv) scFv: QSALTQPPSASGSPGQSVTISCTGTSSDVGAYNFVSWYQQHPGNAPKLIIYDVRKRPSGIPDRFSASKSGNTASLTVSGLQADDEADYYCSSYAGNNNLVFGGGTKLTVLGGGGSGGGGSGGGGSQVQLVQSGAEVKKPGSSVKVSCKASGGTFSSYAISWVRQAPGQGLEWMGMINPSGGTTSYAQKFQGRVTMTRDTSTSTVYMELSSLRPEDTAVYYCARGFRMDQWGQGTLVTVSS", "binding result": "binds"}
{"binder": "anti-CD40 scFv 40-37 (in LACOSTIM 40-37.28) (scFv, Tested on T cells as part of the LACOSTIM 40-37.28 (scFv fused with CD28), co-electroporated with the anti-Her2 CAR 4D5.BBZ; also called 40-37 scFv) scFv: SYELTQPPSVSVSPGQTASITCSGDKLGNKYASWYQQKPGQSPVLVIFQDSRRPSGIPERFSGSNSGNTATLTISGTQAMDEADYYCQAWDSSTALFGGGTKLTVLGGGGSGGGGSGGGGSQVQLVQSGGGVVQPGRSLRLSCAASGFTFSSYAMHWVRQAPGKGLEWVAVISKDGSYENYVDSVKGRLAISRDNSKNTLFLQMDSLRPEDTALYFCARDYWYGMDVWGQGTTVTVSS", "binding result": "binds"}
{"binder": "anti-CD40 scFv 40-45 (in LACOSTIM 40-45.28) (scFv, Tested on T cells as part of the LACOSTIM 40-45.28 (scFv fused with CD28), co-electroporated with the anti-Her2 CAR 4D5.BBZ; also called 40-45 scFv) scFv: QSALTQPASVSGSPGQSITISCTGTSSDVGGYKYVSWYQQHPGKAPKLMIYDVSNRPSGVSNRFSGSKSGNTASLTISGLQAEDEADYYCSSYTSSSTPHVVFGGGTKVTVLGGGGSGGGGSGGGGSEVHLVESGGGVVQPGRSLRLSCAASGFPFSRYGMHWVRQAPGKGLEWVSYISSSGSTIYYADSVKGRFTISRDNSKNTVSLQMNSLRADDTAVYYCSRGTRPGITGRLGYWGQGTLVTVSS", "binding result": "binds"}
